- assayed.system: MRFAP1; further: test concentration or dose not given here
- test.method.notes: reporter assay of Huesken 2005
- settings: siRNA
Oligonucleotides are written 5' to 3', each unit as a sugar letter and its base; * is a phosphorothioate linkage, no mark a phosphodiester; rarer units and linkages stand in square brackets, end groups in braces. Plain capitals give the bases only. d = 2'-deoxy (DNA); r = 2'-OH (RNA)
outcome.measure: normalised inhibition (eCFP-eYFP dual reporter) (%)
Answers are plain numbers, in %.

Illustrative cases are given below, each with its answer.
{"substance": "sense rCrUrCrArArCrCrArCrCrUrGrCrArGrGrGrCrGdTdT / antisense rCrGrCrCrCrUrGrCrArGrGrUrGrGrUrUrGrArGdAdG", "meas.value": 43.2}
{"substance": "sense rGrArGrUrGrUrCrGrUrGrCrArGrArCrArArGrCdTdT / antisense rGrCrUrUrGrUrCrUrGrCrArCrGrArCrArCrUrCdAdG", "meas.value": 64.8}
{"substance": "sense rGrUrGrGrGrArGrArUrGrGrArCrArArUrArUrGdTdT / antisense rCrArUrArUrUrGrUrCrCrArUrCrUrCrCrCrArCdAdG", "meas.value": 79.7}

Give normalised inhibition (eCFP-eYFP dual reporter) for all substances that follow.
1. sense rGrArArArGrArUrCrCrUrUrGrCrArArUrArCrCdTdT / antisense rGrGrUrArUrUrGrCrArArGrGrArUrCrUrUrUrCdAdT
2. sense rGrUrGrArGrCrCrGrUrCrCrGrCrGrGrUrUrUrCdTdT / antisense rGrArArArCrCrGrCrGrGrArCrGrGrCrUrCrArCdGdA

[82.6, 72.2]

Give normalised inhibition (eCFP-eYFP dual reporter) for all substances that follow.
1. sense rUrUrArCrCrArUrGrUrUrGrArArArArCrArArAdTdT / antisense rUrUrUrGrUrUrUrUrCrArArCrArUrGrGrUrArAdGdG
2. sense rUrCrUrGrGrUrUrGrArGrUrGrArUrGrGrCrGrAdTdT / antisense rUrCrGrCrCrArUrCrArCrUrCrArArCrCrArGrAdAdT
3. sense rCrCrGrGrGrGrCrArArGrCrUrGrUrGrGrGrArGdTdT / antisense rCrUrCrCrCrArCrArGrCrUrUrGrCrCrCrCrGrGdTdT
4. sense rCrCrCrUrGrUrGrArCrArCrUrGrArGrArCrUrUdTdT / antisense rArArGrUrCrUrCrArGrUrGrUrCrArCrArGrGrGdAdC

91.3
75.7
44.9
65.9

Give normalised inhibition (eCFP-eYFP dual reporter) for all substances that follow.
1. sense rUrArCrArCrGrGrCrUrArGrGrArCrUrGrArUrGdTdT / antisense rCrArUrCrArGrUrCrCrUrArGrCrCrGrUrGrUrAdAdG
2. sense rArCrGrCrArGrUrGrGrArGrCrUrGrGrCrGrGrAdTdT / antisense rUrCrCrGrCrCrArGrCrUrCrCrArCrUrGrCrGrUdCdC
3. sense rCrCrArGrArGrArGrCrCrUrUrUrGrUrUrUrUrCdTdT / antisense rGrArArArArCrArArArGrGrCrUrCrUrCrUrGrGdTdT
4. sense rUrUrCrUrCrArCrUrGrArCrArCrUrArCrGrUrUdTdT / antisense rArArCrGrUrArGrUrGrUrCrArGrUrGrArGrArAdCdA
5. sense rUrCrUrUrUrUrCrCrCrCrUrCrUrGrUrCrUrUrCdTdT / antisense rGrArArGrArCrArGrArGrGrGrGrArArArArGrAdAdA

61.8
76.4
89.6
72.2
35.3

Give normalised inhibition (eCFP-eYFP dual reporter) for all substances that follow.
1. sense rArArArUrUrUrUrArUrGrUrGrCrUrArCrArCrUdTdT / antisense rArGrUrGrUrArGrCrArCrArUrArArArArUrUrUdAdA
2. sense rArGrCrUrCrGrUrGrCrGrGrCrGrGrArUrArGrAdTdT / antisense rUrCrUrArUrCrCrGrCrCrGrCrArCrGrArGrCrUdGdC
3. sense rGrArArUrArArCrGrUrUrCrArUrUrCrCrUrGrGdTdT / antisense rCrCrArGrGrArArUrGrArArCrGrUrUrArUrUrCdAdC

1: 46.8; 2: 79.7; 3: 66.8

Provenance of the data: the OligoGym collection
